target or test system: aromatase (Homo sapiens)
Sequence (P11511 1-503): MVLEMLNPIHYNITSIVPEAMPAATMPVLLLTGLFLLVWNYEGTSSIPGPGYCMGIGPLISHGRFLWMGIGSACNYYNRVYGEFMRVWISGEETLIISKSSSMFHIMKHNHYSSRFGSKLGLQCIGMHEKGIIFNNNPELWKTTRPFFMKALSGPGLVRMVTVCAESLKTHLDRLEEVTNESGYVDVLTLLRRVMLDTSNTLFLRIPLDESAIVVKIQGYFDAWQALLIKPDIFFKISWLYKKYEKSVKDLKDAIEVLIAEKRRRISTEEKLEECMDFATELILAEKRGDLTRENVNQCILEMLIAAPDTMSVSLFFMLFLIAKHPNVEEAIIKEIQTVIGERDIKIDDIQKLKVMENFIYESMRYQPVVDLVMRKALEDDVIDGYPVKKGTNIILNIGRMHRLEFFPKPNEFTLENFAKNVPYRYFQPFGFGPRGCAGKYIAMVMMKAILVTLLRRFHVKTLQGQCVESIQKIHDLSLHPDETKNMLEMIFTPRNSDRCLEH
assay info: biochemical
recorded conditions: human placental microsomes, 30 min at 37° C., pH 7.4, 1,2[3H]androstenedione; read-out: IC50-values (concentration of the compound required to obtain 50% inhibition of the estrogen synthesis)
Cut-off 20 nM on IC50: below means Y, at or above means N.

INPUT: Given CCC(C)n1nnc2ccc(Cn3ccnc3)cc21 (centres unmarked) [Compound 101] , is recorded IC50 strictly lower than 20 nM?
OUTPUT: Y

INPUT: Given c1ccc(CCn2nnc3ccc(Cn4ccnc4)cc32)cc1 [Compound 92] , is recorded IC50 strictly lower than 20 nM?
OUTPUT: Y

INPUT: Given CCCCn1nnc2ccc(C(c3ccccc3)n3ccnc3)cc21.O=C(O)C(=O)O (centres unmarked) [Compound 75] , is recorded IC50 strictly lower than 20 nM?
OUTPUT: N

INPUT: Given CCCCn1nnc2ccc(C(c3ccc(Cl)cc3)n3ccnc3)cc21 (centres unmarked) [Compound 15] , is recorded IC50 strictly lower than 20 nM?
OUTPUT: N

INPUT: Given c1cn(Cc2ccc3nnn(C4CCCC4)c3c2)cn1 [Compound 107] , is recorded IC50 strictly lower than 20 nM?
OUTPUT: Y

====

Kindly state pIC50 for each of the entries shown.
target or test system: aromatase (Homo sapiens, UniProt P11511)
assay info: biochemical
recorded conditions: human placental microsomes, 30 min at 37° C., pH 7.4, 1,2[3H]androstenedione; read-out: IC50-values (concentration of the compound required to obtain 50% inhibition of the estrogen synthesis)
// pIC50: -log10(molar conc.)

INPUT: Endpoint output: pIC50 of c1cncc(COn2nnc3ccc(Cn4ccnc4)cc32)c1 . Value?
OUTPUT: 7.96

INPUT: Endpoint output: pIC50 of c1ccc(CCOn2nnc3ccc(Cn4ccnc4)cc32)cc1 . Value?
OUTPUT: 7.96

INPUT: Endpoint output: pIC50 of CCOC(=O)COn1nnc2ccc(Cn3ccnc3)cc21 . Value?
OUTPUT: 7.74

INPUT: Endpoint output: pIC50 of CCOn1nnc2ccc(C(c3ccccc3)n3ccnc3)cc21 (stereo not drawn) . Value?
OUTPUT: 7.80

INPUT: Endpoint output: pIC50 of c1ccc(CCCOn2nnc3ccc(Cn4ccnc4)cc32)cc1 . Value?
OUTPUT: 8.14

INPUT: Endpoint output: pIC50 of Cn1nnc2ccc(C(c3cccc(Br)c3)n3ccnc3)cc21 (stereo not drawn) . Value?
OUTPUT: 7.74

INPUT: Endpoint output: pIC50 of CCCCCCOn1nnc2ccc(Cn3ccnc3)cc21 . Value?
OUTPUT: 8.15

INPUT: Endpoint output: pIC50 of CCCCCCCCCOn1nnc2ccc(Cn3ccnc3)cc21 . Value?
OUTPUT: 7.77

INPUT: Endpoint output: pIC50 of Clc1ccc(C(c2ccc3nnn(C4CCCCC4)c3c2)n2ccnc2)cc1 (stereo not drawn) . Value?
OUTPUT: 7.90

INPUT: Endpoint output: pIC50 of CC(C)On1nnc2ccc(C(c3ccccc3)n3ccnc3)cc21 (stereo not drawn) . Value?
OUTPUT: 7.80

INPUT: Endpoint output: pIC50 of C=CCn1nnc2ccc(Cn3ccnc3)cc21 . Value?
OUTPUT: 7.61

INPUT: Endpoint output: pIC50 of OCCCn1nnc2ccc(Cn3ccnc3)cc21 . Value?
OUTPUT: 7.58
